test system: cathepsin L1 (Fasciola hepatica); test: CTSL1 protease inhibition, fluke enzyme – biochemical, QFRET, fluorogenic peptide substrate, counter-screen for PFM18AAP inhibitor project, primary screen (AID 1906);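 also: 0% = plate median of test compound wells and 100% = 1 µM Z-Phe-Ala-diazomethylketone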; conditions: recombinant F. hepatica cathepsin L1, Z-Leu-Arg-MCA fluorescence; at 5.96 µM; hits give high values
Among all 300,000 compounds or so, about 1,500 (0.5%) were called active. For the sample, actives were picked, then their nearest neighbours and some compounds at random.
I'd be grateful if you could share measured inhibition for these entries.
One number for each entry, in %.

>>> print(df.to_string())
                           structure_smiles  test_result
0  O=C(/C=C/c1ccc([N+](=O)[O-])o1)NNC(=O)c1ccc(F)cc1         17.7
1      C/C(=N\NC(=O)c1ccc2ccccc2c1)c1cccnc1         0.17
2                Cc1ccc(SCC(=O)Nc2nncs2)cc1        -3.07
3           Cc1cc(C(F)F)nn1CC(=O)NC1CCCCCC1        -2.79
4  Cn1cc(S(=O)(=O)Nc2ccc(Cl)cc2Cl)c(=O)n(C)c1=O        -0.98
5    O=C(Cn1nc([N+](=O)[O-])nc1Br)NC1CCCCC1         56.3

Provide reported inhibition for each item, in the same order as listed.
1. O=c1c([N+](=O)[O-])cccn1Cc1ccc(F)cc1Cl
2. Cc1nn(CC(=O)NC2CCCCC2)c(=O)c2cccn12

A:
-4.32
-0.36
